- System Under Test: Fuc(a1-2)Gal(b1-3)GlcNAc(b1-3)[Fuc(a1-2)Gal(b1-3)GlcNAc(b1-6)]GalNAc
- Measurement Notes: glycan array binding signal (z-score within array); higher = stronger binding
- Recorded Conditions: glycan notation: IUPAC condensed, linker removed
The sample as a whole holds a higher share of the strongest signals than the screen did.
Quantity Name: glycan array binding signal (z-score)
Please respond with just the number, no unit label.

Reference set (2 entries):
CAA (Caragana arborescens) (protein) VAVEFDTFDNPDWDPRTKHIGIDVNSIRSNKTTQWGFWNRQVADVDISYEASSKTLNVSLYYPGESYIVTDVVDLKDILPEWVRIGF ... -0.242
NPA (Narcissus pseudonarcissus), C0HM45 (protein) DNILYSGETLSPGEFLNNGRYVFIMQEDCNLVLYDVDKPIWATNTGGLDRRCHLSMQSDGNLVVYSPRNNPIWASNTGGENGNYVCVLQKDRNVVIYGTARWATGTNIH ... -0.124

Using known records, supply glycan array binding signal (z-score) for rMpL (Macrolepiota procera) (protein) MSTQVSSGRTYKITNVIAGTVIDLSGEDNKSIIGYPYHSGKNQQWTFNWTGKAWTLRSASSGSYLGIEGTPAGGTRLVAVNDPFEWHIWRDEANENAFRIFVPFTNYNLDLSGYGDTTPGTPVQLWWTWEGLHQTWTIDRP
-0.078

Provide measured glycan array binding signal (z-score) value, entry: Agalectin (Anopheles gambiae) (protein) MSNRPFTAKFPRYPENGDEVFIRGKLKDDAKSFSVNFCLPRPAQVAEHQTPPYIALHFKTIYDERDDTSRVVLNWKNLQWQQEEVLDNYWHVDRSQTFRVVFRLHEDCIKVFVNSVDHPPDYQFPVQLPLDQIESIELWDDVEHVEEISFRYDNGNSY
4.19

In one line, give reported glycan array binding signal (z-score) of the entry Erv41-EDTA (Saccharomyces cerevisiae), Q04651 (protein) MKFLVNVALVFMVVYISYIYAAAPEHHHHHHDYDIPTTENLYFQGAMGYIDQQYVVDSQVRDTVQINMDIYVNTKCDWLQINVRDQTMDRKLVLEELQLEEMPFFIPYDTKVNDINEIITPELDEILGEAIPAEFREKLDTRSFFDESDPNKAHLPEFNGCHVFGSIPVNRVSGELQITAKSLGYVASRKAPLEELKFNHVINEFSFGDFYPYIDNPLDNTAQFNQDEPLTTYVYYTSVVPTLFKKLGAEVDTNQYSVNDYRYLYKDVAAKGDKMPGIFFKYNFEPLSIVVSDVRL .
2.18

Indicate the recorded glycan array binding signal (z-score) value for this binder: Gal 3C (Homo sapiens), P17931 (protein) YGAPAGPLIVPYNLPLPGGVVPRMLITILGTVKPNANRIALDFQRGNDVAFHFNPRFNENNRRVIVCNTKLDNNWGREERQSVFPFESGKPFKIQVLVEPDHFKVAVNDAHLLQYNHRVKKLNEISKLGISGDIDLTSASYTMI
-0.212
